- test.protocol: The maximum concentration of the compound was measured in rat at dose 1 mg/kg after peroral administration.
- Assay type: ADME, organism-based
- Parameters: dose 1 mg/kg, route oral
- condition: in vivo, po
result.type: Cmax (nM)

* CCN(c1nc(C)nc(N2CCOCC2)n1)c1c(Br)cc(OC)cc1OC | 21

====

- test.protocol: The half life period was measured in rat at dose 12 mg/kg after intravenous administration.
- Assay type: ADME, organism-based
- Design: dose 12 mg/kg, route intravenous
- condition: in vivo
result.type: half-life (h)

• CCN(c1nc(C)nc(N2CCOCC2)n1)c1c(Br)cc(OC)cc1OC = 15.6

====

- test.protocol: Tmax is the time taken to reach maximum concentration was measured on rat at dose 30 mg/kg after intravenous administration.
- Type: ADME, organism-based
- Parameters: dose 30 mg/kg, route intravenous
- condition: in vivo
result.type: Tmax

• CCN(c1nc(C)cc(C)n1)c1c(Br)cc(OC)cc1OC = 15 min

====

- test.protocol: The half life period was measured in rat at dose 1 mg/kg after intravenous administration.
- Type: ADME, organism-based
- Set-up: dose 1 mg/kg, route intravenous
- condition: in vivo
result.type: half-life (h)

• CCN(c1nc(C)nc(N2CCOCC2)n1)c1c(Br)cc(OC)cc1OC = 7.6

====

- test.protocol: The bioavailability measured as F(%) in dog at dose 5 mg/kg after peroral administration.
- Assay type: ADME, organism-based, Canis lupus familiaris
- condition: in vivo, po
result.type: bioavailability (%)

- CCN(c1nc(C)nc(N2CCOCC2)n1)c1c(Br)cc(OC)cc1OC: 20

====

- test.protocol: The maximum concentration of the compound was measured in rat at dose 30 mg/kg after intravenous administration.
- Type: ADME, organism-based
- Design: dose 30 mg/kg, route intravenous
- condition: in vivo
result.type: Cmax (nM)

• CCN(c1nc(C)cc(C)n1)c1c(Br)cc(OC)cc1OC = 1880

====

- assay.target: Corticotropin-releasing factor receptor 1 (Homo sapiens, UniProt P34998)
- test.protocol: Binding affinity for human recombinant corticotropin releasing factor receptor 1
result.type: Ki (nM)

- CCCN(CC1CC1)c1cc(C)nc(N(CC)c2ccc(C(C)C)cc2Br)n1: 9
- CCCCN(CC)c1cc(C)nc(N(CC)c2ccc(C(C)=O)cc2Br)n1: 8
- CCN(Cc1ccccc1)c1cc(C)nc(N(CC)c2ccc(C(C)C)cc2Br)n1: 17
- CCCN(CCC)c1nc(C)nc(N(CC)c2ccc(N(C)C)cc2C)n1: 7
- CCCCN(CC)c1nc(C)nc(N(CC)c2ccc(C(C)C)cc2Br)n1: 5
- CCCCN(CC)c1cc(C)nc(N(CC)c2ccc(C(C)C)cc2Br)n1: 19
- CCN(CC)c1nc(C)nc(N(CC)c2ccc(N(C)C)cc2C(F)(F)F)n1: 20
- CCN(CC)c1cc(C)nc(N(CC)c2ccc(C(C)=O)cc2Br)n1: 5
- CCN(c1nc(C)nc(N(CCOC)CCOC)n1)c1ccc(C(C)C)cc1Br: 18
- CCCN(c1cc(C)nc(N(CC)c2ccc(C(C)C)cc2Br)n1)C1CC1: 5
- CCCCN(CC#N)c1nc(C)nc(N(CC)c2ccc(N(C)C)cc2C(F)(F)F)n1: 6
- CCN(c1nc(C)cc(N2CCOCC2)n1)c1ccc(C(C)C)cc1Br: 22
- CCN(c1nc(C)cc(N2CCCCC2)n1)c1ccc(C(C)C)cc1Br: 29
- CCN(c1nc(C)cc(C)n1)c1ccc(OC)cc1SC: 60

====

- assay.target: Corticotropin-releasing factor receptor 1 (Homo sapiens)
- test.protocol: Binding affinity for human recombinant corticotropin releasing factor receptor 1
Below, each of the molecules is paired with its reported Ki value.
result.type: Ki (nM)

- CCN(CC)c1cc(C)nc(N(CC)c2ccc(N(C)C)cc2C(F)(F)F)n1: 11
- CCCCN(CC)c1nc(C)nc(N(CC)c2ccc(OC(F)(F)F)cc2Br)n1: 5
- CCCCN(CCOC)c1nc(C)nc(N(CC)c2c(C)cc(C)cc2C)n1: 13
- CCC(CC)Nc1nc(C)nc(N(CC)c2ccc(C(C)C)cc2Br)n1: 41
- CCN(CC)c1cc(C)nc(N(CC)c2c(Cl)cc(OC)cc2OC)n1: 10
- CCCN(CCOC)c1cc(C)nc(N(CC)c2ccc(C(C)C)cc2Br)n1: 11
- CCN(c1nc(C)cc(N(CCOC)Cc2ccccc2)n1)c1ccc(C(C)C)cc1Br: 14
- CCN(c1nc(C)cc(C)n1)c1c(Br)cc(N(C)C)cc1OC: 5
- CCN(CC)c1cc(C)nc(N(CC)c2ccc(SC)cc2Br)n1: 24
- CCC(CC)CNc1cc(C)nc(N(CC)c2ccc(C(C)C)cc2Br)n1: 44
- CCN(CC)c1cc(C)nc(N(CC)c2c(Br)cc(OC)cc2OC)n1: 48
- CCN(c1nc(C)cc(C)n1)c1ccc(N(C)C)cc1C: 54
- CCN(c1nc(C)cc(C)n1)c1ccc(N(C)C)cc1SC: 20
- CCN(CC)c1cc(C)nc(N(CC)c2ccc(S(C)(=O)=O)cc2Br)n1: 24
- CCN(CC)c1cc(C)nc(N(CC)c2c(Cl)cc(Br)cc2Cl)n1: 24
- CCC(CC)c1cc(C)nc(N(CC)c2ccc(C(C)C)cc2Br)n1: 2
- CCN(c1nc(C)nc(N(CCOC)CC2CC2)n1)c1c(C)cc(C)cc1C: 25
- CCN(CCOC)c1nc(C)nc(N(CC)c2c(C)cc(C)cc2C)n1: 31
- CCCN(CC1CC1)c1nc(C)nc(N(CC)c2ccc(N(C)C)cc2C(F)(F)F)n1: 5
- CCN(c1nc(C)nc(N2CCOCC2)n1)c1c(Br)cc(OC)cc1OC: 32
- CCCCN(CC)c1nc(C)nc(N(CC)c2c(C)cc(C)cc2C)n1: 23
- CCN(CCOC)c1cc(C)nc(N(CC)c2ccc(C(C)C)cc2Br)n1: 22
- CCN(CC)c1nc(C)nc(N(CC)c2c(Br)cc(OC)cc2OC)n1: 10
- CCCCN(CC#N)c1nc(C)nc(N(CC)c2ccc(N(C)C)cc2C)n1: 8
- CCN(c1nc(C)cc(C)n1)c1ccc(OC)cc1Br: 35
- CCCN(CCC)c1nc(C)nc(N(CC)c2ccc(C(C)C)cc2Br)n1: 4
- CCN(CC)c1cc(C)nc(N(CC)c2ccc(N(C)C)cc2Br)n1: 27
- CCN(c1nc(C)cc(C)n1)c1c(Br)cc(C(C)C)cc1OC: 26
- CCN(c1nc(C)cc(N(CCOC)CCOC)n1)c1ccc(C(C)C)cc1Br: 25
- CCN(CC)c1cc(C)nc(N(CC)c2c(Br)cc(Br)cc2OC)n1: 31
- CCN(c1nc(C)cc(C)n1)c1c(Br)cc(C(C)C)cc1SC: 51

====

- assay.target: Corticotropin-releasing factor receptor 1 (Homo sapiens)
- Sequence (P34998 whole entry): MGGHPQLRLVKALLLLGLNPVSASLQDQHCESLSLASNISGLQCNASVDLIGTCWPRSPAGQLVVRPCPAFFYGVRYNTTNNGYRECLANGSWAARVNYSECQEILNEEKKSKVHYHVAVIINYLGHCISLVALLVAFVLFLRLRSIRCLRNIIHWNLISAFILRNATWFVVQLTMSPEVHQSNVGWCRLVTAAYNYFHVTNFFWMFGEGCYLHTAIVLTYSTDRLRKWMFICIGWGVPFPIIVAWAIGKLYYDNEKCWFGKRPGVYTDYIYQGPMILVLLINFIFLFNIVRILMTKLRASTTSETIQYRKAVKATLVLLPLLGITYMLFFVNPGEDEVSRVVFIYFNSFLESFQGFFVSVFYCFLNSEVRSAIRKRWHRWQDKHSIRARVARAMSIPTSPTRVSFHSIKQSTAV
- test.protocol: Binding affinity for human recombinant corticotropin releasing factor receptor 1
result.type: Ki (nM)

- CCCN(CCC)c1nc(C)nc(N(CC)c2ccc(N(C)C)cc2C(F)(F)F)n1: 6
- CCN(c1nc(C)cc(C)n1)c1c(Br)cc(OC)cc1OC: 12
- CCCCN(CC)c1cc(C)nc(N(CC)c2ccc(I)cc2Br)n1: 14
- CCCCN(CCC#N)c1nc(C)nc(N(CC)c2ccc(N(C)C)cc2C)n1: 8
- CCN(CC)c1nc(C)nc(N(CC)c2ccc(C(C)=O)cc2Br)n1: 17
- CCN(CC)c1cc(C)nc(N(CC)c2ccc(I)cc2Br)n1: 9

====

- assay.target: Corticotropin-releasing factor receptor 1 (Homo sapiens)
- test.protocol: Binding affinity for human recombinant corticotropin releasing factor receptor 1
Parameter Ki: see the listing below.
result.type: Ki

- CCCCN(Cc1nn[nH]n1)c1cc(C)nc(N(CC)c2ccc(C(C)C)cc2Br)n1: > 1000 nM
- CCc1cc(CC)nc(N(CC)c2ccc(C(C)C)cc2Br)n1: > 100 nM
- CCCCc1ccc(N(CC)c2nc(C)cc(C)n2)c(Br)c1: > 100 nM
- CCN(c1nc(C)cc(C)n1)c1ccc(C(C)(C)C)cc1Br: > 100 nM
- CCN(c1nc(C)cc(C)n1)c1ccccc1Br: > 1000 nM
- CCN(c1ccc(C(C)C)cc1)c1nc(C)cc(C)n1: > 1000 nM
- CCN(c1nc(C)cc(N2CCNCC2)n1)c1ccc(C(C)C)cc1Br: > 1000 nM
